TESTED SYSTEM: EGFR (form in the assay not stated) (human, UniProt P00533 25-645, limits assumed)
ASSAY EXPLANATION: ELISA, NEM conjugate 500 nM
Below: a set of entries, each annotated with reported binding ratio vs parent P54AR4-83v2.
Numbers only here, please. The scale is ratio.

{"BINDER": "P54AR4-83v2 V8C, NEM conjugate (designed binder, NEM on Cys 8, His-tagged) LPAPKNLCVSEVTEDSARLSWDDPWAFYESFLIQYQESEKVGEAIVLTVPGSERSYDLTGLKPGTEYTVSIYGVHNVYKDTNMRGLPLSAIFTT", "ENDPOINT VALUE": 0.9}

# lookup: binding ratio vs parent P54AR4-83v2 of P54AR4-83v2 Q34C, NEM conjugate (designed binder, NEM on Cys 34, His-tagged) LPAPKNLVVSEVTEDSARLSWDDPWAFYESFLICYQESEKVGEAIVLTVPGSERSYDLTGLKPGTEYTVSIYGVHNVYKDTNMRGLPLSAIFTT
0.94

Please report the recorded binding ratio vs parent P54AR4-83v2 for P54AR4-83v2 S89C, NEM conjugate (designed binder, NEM on Cys 89, His-tagged) LPAPKNLVVSEVTEDSARLSWDDPWAFYESFLIQYQESEKVGEAIVLTVPGSERSYDLTGLKPGTEYTVSIYGVHNVYKDTNMRGLPLCAIFTT .
1.04

// binding ratio vs parent P54AR4-83v2 lookup, key: P54AR4-83v2 R54C, NEM conjugate (designed binder, NEM on Cys 54, His-tagged) LPAPKNLVVSEVTEDSARLSWDDPWAFYESFLIQYQESEKVGEAIVLTVPGSECSYDLTGLKPGTEYTVSIYGVHNVYKDTNMRGLPLSAIFTT
0.93

Query: binding ratio vs parent P54AR4-83v2; subject: P54AR4-83v2 F31C, NEM conjugate (designed binder, NEM on Cys 31, His-tagged) LPAPKNLVVSEVTEDSARLSWDDPWAFYESCLIQYQESEKVGEAIVLTVPGSERSYDLTGLKPGTEYTVSIYGVHNVYKDTNMRGLPLSAIFTT
0.62

Query: binding ratio vs parent P54AR4-83v2; subject: P54AR4-83v2 A90C, NEM conjugate (designed binder, NEM on Cys 90, His-tagged) LPAPKNLVVSEVTEDSARLSWDDPWAFYESFLIQYQESEKVGEAIVLTVPGSERSYDLTGLKPGTEYTVSIYGVHNVYKDTNMRGLPLSCIFTT
1.01
